Reported values of IC50 for individual entries
Test system: Plasmodium falciparum
Assay Summary: Antimalarial activity against chloroquine-resistant/mefloquine-sensitive Plasmodium falciparum W2 by malaria SYBR green 1-based fluorescence (MSF) assay
Assay type: functional, organism-based
Write the answer as a number in nM, unit excluded.

Challenge: Query (molecule): O=c1c(O)c(-c2ccc(O)c(O)c2)oc2c(CNCCc3cccc(F)c3)c(O)cc(O)c12 ; field requested: IC50
Response given: 130

Challenge: Which IC50 is reported for this molecule? CN1CCN(Cc2c(O)cc(O)c3c(=O)c(O)c(-c4ccc(O)c(O)c4)oc23)CC1
Response given: 2400

Challenge: Bench note: what IC50 did O=c1c(O)c(-c2ccc(O)c(O)c2)oc2c(CN3CCCCC3)c(O)c(CN3CCCCC3)c(O)c12 show?
Response given: 1200

Challenge: # query: IC50 of entry O=c1c(O)c(-c2ccc(O)c(O)c2)oc2c(CNCCc3c(Cl)cccc3Cl)c(O)cc(O)c12
Response given: 230

Challenge: Form field: reported IC50 of O=c1c(O)c(-c2ccc(O)c(O)c2)oc2c(CNCc3cccc(Cl)c3)c(O)cc(O)c12
Response given: 260

Challenge: Form field: reported IC50 of C[C@@H]1CC[C@H]2[C@@H](C)C(=O)O[C@@H]3O[C@@]4(C)CC[C@@H]1[C@]32OO4
Response given: 7

Challenge: Using the record for O=C(O[C@@H]1Cc2c(O)cc(O)cc2O[C@@H]1c1cc(O)c(O)c(O)c1)c1cc(O)c(O)c(O)c1 [EPIGALOCATECHIN GALLATE] , report its IC50.
Response given: 1400

Challenge: What value of IC50 has been reported for the following molecule? O=c1c(O)c(-c2ccc(O)c(O)c2)oc2c(CNCCc3ccc(Cl)cc3)c(O)cc(O)c12
Response given: 1900

Challenge: If you can, please state the reported IC50 value of O=c1c(O)c(-c2ccc(O)c(O)c2)oc2c(CNCCc3ccc(Cl)cc3Cl)c(O)cc(O)c12 .
Response given: 71

Challenge: Look up IC50: O[C@@H](c1cc(C(F)(F)F)nc2c(C(F)(F)F)cccc12)[C@H]1CCCCN1 [(S,R)-MEFLOQUINE]
Response given: 7

Challenge: Fill blank: measured IC50 of the molecule O=c1c(O)c(-c2ccc(O)c(O)c2)oc2c(CNCCc3cccc(Cl)c3)c(O)cc(O)c12 is ____.
Response given: 79

Challenge: For the molecule O=c1c(O)c(-c2ccc(O)c(O)c2)oc2c(CNCCc3ccccc3Cl)c(O)cc(O)c12 , what IC50 is on record?
Response given: 290

----------
Test system: Plasmodium falciparum
Assay Summary: Antimalarial activity against chloroquine /mefloquine/pyrimethamine-resistant Plasmodium falciparum C235 by malaria SYBR green 1-based fluorescence (MSF) assay
Assay type: functional, organism-based
pIC50: −log10 of the molar value.
Value Kind: pIC50

# annotated cases, reported pIC50 shown
O=c1c(O)c(-c2ccc(O)c(O)c2)oc2c(CNCc3ccco3)c(O)cc(O)c12    < 5.65
O=c1c(O)c(-c2ccc(O)c(O)c2)oc2c(CNCCc3ccccc3)c(O)cc(O)c12    < 5.67

Challenge: Value lookup for pIC50; key = O=c1c(O)c(-c2ccc(O)c(O)c2)oc2c(CNCc3ccccc3)c(O)cc(O)c12
Response given: < 5.66
